target: [3H]PROG 16α-hydroxylating activity by male rat liver microsomes (CYP2C11) (Rattus norvegicus); test: Inhibition of [3H]progesterone 16α-hydroxylation by adult male rat liver microsomes; conditions: molar concentration of unlabeled steroid causing 40% inhibition; [3H]PROG 20 nM; unlabeled steroid 0.01–10 μM; male rat liver microsomes
MEASURED ATTRIBUTE: [3H]PROG16α-hydroxylation (IC40) (nM)

CC(=O)[C@H]1CC[C@H]2[C@@H]3CC[C@@H]4CC(=O)CC[C@]4(C)[C@H]3CC[C@]12C [compound 28, 5β-Pregnan-3,20-dione] ... 395
C[C@]12CCC(=O)C=C1CC[C@@H]1[C@@H]2CC[C@]2(C)C(=O)CC[C@@H]12 [compound 38, 4-Androsten-3,17-dione] ... 1000
CC(=O)[C@H]1CC[C@H]2[C@@H]3CC[C@@H]4C[C@H](O)CC[C@]4(C)[C@H]3CC[C@]12C [compound 33, 3α-Hydroxy-5 β -pregnan-20-one] ... 24
CC(=O)O[C@H]1CC[C@H]2[C@@H]3CC[C@H]4C[C@H](O)CC[C@]4(C)[C@H]3CC[C@]12C [compound 63, 5α-Androstan-3α,17β-diol-17-acetate] ... 300
CC(=O)[C@H]1CC[C@H]2[C@@H]3CCC4=C[C@@H](O)CC[C@]4(C)[C@H]3CC[C@]12C [compound 2, 3β-Hydroxyprogesterone] ... 255
C[C@]12CCC(=O)C[C@H]1CC[C@@H]1[C@@H]2CC[C@]2(C)C(=O)CC[C@@H]12 [compound 55, 5β-Androstan-3,17-dione] ... 480
C[C@@]12CCC[C@H]1[C@@H]1CC[C@@H]3C[C@H](O)CC[C@]3(C)[C@H]1CC2 [compound 50, 5β-Androstan-3α-ol] ... 510
CC(=O)[C@H]1CC[C@H]2[C@@H]3CCC4=CC(=O)CC[C@]4(C)[C@H]3CC[C@]12C [compound 1, Progesterone] ... 755
C[C@]12CC[C@H]3[C@@H](CCC4=CC(=O)CC[C@@]43C)[C@@H]1CC[C@@H]2O [compound 41, Testosterone] ... 1450
C[C@]12CC[C@H](O)CC1=CC[C@@H]1[C@@H]2CC[C@]2(C)C(=O)CC[C@@H]12 [compound 43, Dehydroepiandrosterone] ... 680
COC(=O)[C@@H]1C[C@@H](O)C[C@H]2CC[C@H]3[C@@H]4CCC[C@@]4(C)CC[C@@H]3[C@]21C [compound 68] ... 43
C[C@@]12CCC[C@H]1[C@@H]1CC[C@H]3C[C@@H](O)CC[C@]3(C)[C@H]1CC2 [compound 49, 5α-Androstan-3β-ol] ... 650

* * *

[3H]PROG16α-hydroxylation (IC40), given as bound in μM values by entry
biological target: [3H]PROG 16α-hydroxylating activity by male rat liver microsomes (CYP2C11) (Rattus norvegicus, UniProt P08683); assay: Inhibition of [3H]progesterone 16α-hydroxylation by adult male rat liver microsomes; conditions: 40% inhibition not reached at 10 μM of unlabeled steroid; male rat liver microsomes
Sequence (P08683 whole entry): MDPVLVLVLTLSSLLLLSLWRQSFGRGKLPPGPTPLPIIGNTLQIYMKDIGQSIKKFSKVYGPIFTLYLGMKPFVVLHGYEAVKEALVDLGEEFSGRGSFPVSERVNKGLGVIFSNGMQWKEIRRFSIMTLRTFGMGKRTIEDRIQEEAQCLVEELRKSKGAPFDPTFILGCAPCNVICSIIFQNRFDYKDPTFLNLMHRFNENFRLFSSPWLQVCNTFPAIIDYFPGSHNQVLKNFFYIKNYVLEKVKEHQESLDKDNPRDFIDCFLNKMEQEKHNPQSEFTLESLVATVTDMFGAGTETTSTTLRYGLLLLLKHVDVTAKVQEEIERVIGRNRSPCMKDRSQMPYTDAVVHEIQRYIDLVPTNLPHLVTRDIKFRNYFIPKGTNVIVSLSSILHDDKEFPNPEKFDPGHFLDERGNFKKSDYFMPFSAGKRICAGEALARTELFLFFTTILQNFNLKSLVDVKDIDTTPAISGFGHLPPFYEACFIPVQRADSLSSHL
MEASURED ATTRIBUTE: [3H]PROG16α-hydroxylation (IC40), given as bound in μM

C[C@]12C[C@H](O)[C@H]3[C@@H](CCC4=CC(=O)CC[C@@]43C)[C@@H]1CC[C@@H]2C(=O)CO ... >10 µM
C[C@]12CC[C@H]3[C@@H](CCC4=CC(=O)CC[C@@]43C)[C@@H]1CC[C@@H]2C(=O)O ... >10 μM^e
CC(=O)[C@H]1CC[C@H]2[C@@H]3CCC4=CC(=O)CC[C@@H]4[C@H]3CC[C@]12C ... >10 µM
CC(=O)O[C@H]1CC[C@H]2[C@@H]3CCC4=CC(=O)CC[C@]4(C)[C@H]3CC[C@]12C ... >10 µM
CC(=O)[C@H]1CC[C@H]2[C@@H]3CCC4=CC(=O)CC[C@]4(C)[C@H]3CC[C@]12CO [compound 10, 18-Hydroxyprogesterone] ... >10 µM
CC(=O)[C@H]1CC[C@H]2[C@@H]3CCC4=CC(=O)CC[C@]4(C)[C@H]3[C@H](O)C[C@]12C [compound 5, 11α-Hydroxyprogesterone] ... >10 µM
CC(=O)[C@H]1CC[C@H]2[C@@H]3C[C@@H](O)C4=CC(=O)CC[C@]4(C)[C@H]3CC[C@]12C [compound 3, 6β-Hydroxyprogesterone] ... >10 μM^c

* * *

[3H]PROG16α-hydroxylation (IC40) values by entry
target: [3H]PROG 16α-hydroxylating activity by male rat liver microsomes (CYP2C11) (Rattus norvegicus, UniProt P08683); experiment: Inhibition of [3H]progesterone 16α-hydroxylation by adult male rat liver microsomes; settings: molar concentration of unlabeled steroid causing 40% inhibition; [3H]PROG 20 nM; unlabeled steroid 0.01–10 μM; male rat liver microsomes
MEASURED ATTRIBUTE: [3H]PROG16α-hydroxylation (IC40) (nM)

C[C@]12CC[C@H]3[C@@H](CC=C4C[C@@H](O)CC[C@@]43C)[C@@H]1CC[C@@H]2O ... 640
C[C@]12CC[C@H](O)C[C@@H]1CC[C@@H]1[C@@H]2CC[C@]2(C)[C@@H](O)CC[C@@H]12 ... 1110
CC(=O)[C@H]1CC[C@H]2[C@@H]3CC[C@H]4C[C@H](O)CC[C@]4(C)[C@H]3CC[C@]12C [compound 29, 3α-Hydroxy-5 α -pregnan-20-one] ... 62
C[C@]12CC[C@@H](O)C[C@@H]1CC[C@@H]1[C@@H]2CC[C@]2(C)[C@@H](O)CC[C@@H]12 ... 125
C[C@]12CC[C@@H](O)C[C@H]1CC[C@@H]1[C@@H]2CC[C@]2(C)[C@@H](C(=O)O)CC[C@@H]12 ... 360
C[C@]12CCCC[C@H]1CC[C@@H]1[C@@H]2CC[C@]2(C)[C@@H](O)CC[C@@H]12 ... 365
CC(=O)[C@H]1CC[C@H]2[C@@H]3CC[C@H]4C[C@@H](O)CC[C@]4(C)[C@H]3CC[C@]12C [compound 32, 3β-Hydroxy-5 α -pregnan-20-one] ... 225
C[C@@]12CCC[C@H]1[C@@H]1CC[C@H]3C[C@H](O)CC[C@]3(C)[C@H]1CC2 ... 1030
C[C@]12CC[C@H](O)C[C@H]1CC[C@@H]1[C@@H]2CC[C@]2(C)[C@@H](O)CC[C@@H]12 ... 320
CC(=O)[C@H]1CC[C@H]2[C@@H]3CC=C4C[C@@H](O)CC[C@]4(C)[C@H]3CC[C@]12C ... 142
CC(=O)O[C@@H]1CC[C@@]2(C)[C@@H](CC[C@@H]3[C@@H]2CC[C@]2(C)[C@@H](C(C)=O)CC[C@@H]32)C1 ... 410
CC(=O)OCC(=O)[C@H]1CC[C@H]2[C@@H]3CC=C4C[C@@H](O)CC[C@]4(C)[C@H]3CC[C@]12C ... 600

* * *

target: [3H]PROG 16α-hydroxylating activity by male rat liver microsomes (CYP2C11) (Rattus norvegicus); assay: Inhibition of [3H]progesterone 16α-hydroxylation by adult male rat liver microsomes; conditions: molar concentration of unlabeled steroid causing 40% inhibition; [3H]PROG 20 nM; unlabeled steroid 0.01–10 μM; male rat liver microsomes
[3H]PROG16α-hydroxylation (IC40) values by entry
MEASURED ATTRIBUTE: [3H]PROG16α-hydroxylation (IC40) (nM)

C[C@]12CC[C@H]3[C@@H](CC=C4C[C@@H](O)CC[C@@]43C)[C@@H]1CC[C@@H]2C(=O)CO [compound 22, 21-Hydroxypregnenolone] ... 462
CC(=O)O[C@@H]1C[C@H]2[C@@H]3CC[C@H](C(C)=O)[C@@]3(C)CC[C@@H]2[C@@]2(C)CCC(=O)C=C12 ... 740
C[C@@]12CCC[C@H]1[C@@H]1CC[C@@H]3C[C@@H](O)CC[C@]3(C)[C@H]1CC2 ... 160
COC(=O)[C@H]1CC[C@H]2[C@@H]3CCC4=CC(=O)CC[C@]4(C)[C@H]3CC[C@]12C ... 801
C[C@]12CC[C@@H](O)C[C@H]1CC[C@@H]1[C@@H]2CC[C@]2(C)[C@@H](O)CC[C@@H]12 ... 69
C[C@]12CCC(=O)C[C@@H]1CC[C@@H]1[C@@H]2CC[C@]2(C)C(=O)CC[C@@H]12 ... 650
CC(=O)[C@H]1CC[C@H]2[C@@H]3CC[C@@H]4C[C@@H](O)CC[C@]4(C)[C@H]3CC[C@]12C [compound 34, 3β-Hydroxy-5 β -pregnan-20-one] ... 170

Origin of values: paper PMC4970648
